B1: MYL5 (parent)
chain: FQFASIDVAGNLDYKALSYVITHG

Variants of: B1
Assay: protein stability index of a GFP-peptide fusion (GPS, HEK-293T) (PSI 1-6); higher = more stable;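 also: lentivirally expressed fusions sorted by FACS into six bins by GFP to DsRed ratio, PSI derived from sequencing read proportions per bin multiplied by bin number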
Settings: c terminus: a fixed tail appended
Label true (1) when protein stability index >= 3; otherwise false (0).

Hi team, for `K15S` , is the recorded protein stability index at or above 3?
false (0)

Check if protein stability index >= 3 (inclusive). Item: `L17E`
false (0)

Identify whether the reported protein stability index of the following variant is 3 or greater: `A9H`
false (0)

Please indicate if the recorded protein stability index for `I21Q` meets or exceeds 3.
false (0)

Does protein stability index meet or surpass 3 for `A9M` ?
true (1)

I'd appreciate it if you could say whether `I6S` has protein stability index at least equal to 3.
false (0)

Reported protein stability index at or above 3? `A16E`
false (0)

Given the entry `A4Q` , answer whether its protein stability index meets or surpasses 3.
true (1)

In plain terms: is recorded protein stability index at least 3 for `I21R` ?
false (0)

API: above_or_equal(metric=protein stability index, cutoff=3) for item `V8G`
true (1)

# bool: protein stability index of `S18M` >= 3
true (1)

hey, is protein stability index for this one >= 3? `I6T`
false (0)

Is it the case that `F1I` has protein stability index reaching or exceeding 3?
true (1)

Hi, just wondering whether `I21M` shows protein stability index of 3 or higher.
false (0)

Answer whether protein stability index of `Q2M` is greater than or equal to 3.
false (0)

Assess whether reported protein stability index for `L17D` sits at 3 or higher.
false (0)

Is it the case that `Q2C` has protein stability index reaching or exceeding 3?
true (1)

Given the entry `A4D` , answer whether its protein stability index meets or surpasses 3.
false (0)

Say whether `Y19V` shows protein stability index of 3 or more.
false (0)

Would you say `Y14D` shows protein stability index at minimum 3?
false (0)

Please check the record `G10D` and state if its protein stability index is at or above 3.
false (0)

Decide: is the reported value of protein stability index for `Y14R` equal to or greater than 3?
true (1)

The measurements presented in this section are drawn from the supplement of paper PMC10567573.
